- System: MDA-MB-435 melanoma
- assay_remarks: NCI-60 one-dose screen, 48 h
- condition_label: 10 µM unless noted
The panel holds about 83,000 compounds, 20% with a hit somewhere; the sample as a whole holds those more often. Active and inactive are the calls of the source. How the source made its calls: active means growth percent below 10; inactive means the rest.
Output constraint: value belongs to active, inactive

What outcome does the record of this test show for NCCc1ccc(OCc2ccccc2)c(OCc2ccccc2)c1 ?
inactive

Per the assay record, what outcome was assigned to CO[C@H](/C(C)=C/C=C/C(C)=C/c1coc(C)n1)[C@H](C)[C@H]1C[C@@H](O)[C@@]2(C)O[C@H]2/C=C/[C@@H](C)[C@@H]2C[C@@H](CC(=O)O2)C[C@H]2O[C@@H]2C(=O)O1 ?
active

Look up the recorded call for CC[C@@]1(O)C(=O)OCc2c1cc1n(c2=O)Cc2cc3ccccc3nc2-1 in this test.
active
